Target: NLRP3 (Homo sapiens)
Assay: IL-1β Secretion Assay (NLRP3-dependent IL1β secretion in THP1 cells)
Conditions: PMA-differentiated THP-1 cells; compounds incubated 20 h; 2.5 μM Nigericin 3 h; HTRF IL-1β readout; read-out: IC50 IL-1β Inhibition
Method: Monocytic THP-1 cells (ATCC: TIB-202) were maintained in growth media consisting of RPMI 1640 medium (ThermoFisher, Cat #11875-085), 10% FBS (ThermoFisher) and 0.05 mM β-mercaptoethanol (ThermoFisher, Cat #21985-023), according to the provider's instructions. […] Compounds, once produced and prepared according to the present invention, can be assessed in variety of assays to characterize their activities. For example, NLRP3-dependent IL1β secretion was evaluated in THP1 cells. […]
pIC50: −log10 of the molar value.
quantity-name: pIC50

See these solved cases before continuing.
compound	value-observed
O[C@H]1CCC[C@@H](Nc2nnc(-c3ccc(OC(F)F)cc3OC(F)(F)F)c3cccn23)C1	8.00 to 9.00
COc1ccc(-c2nnc(N[C@H]3C[C@@H](CO)C3)n3cncc23)c(CC(F)(F)F)c1	8.00 to 9.00
COc1ccc(-c2nnc(NC3CCNC3=O)n3cc(C)cc23)c(OC(F)(F)F)c1 (stereo not drawn)	8.00 to 9.00
COc1ccc(-c2nnc(N[C@@H]3C[C@@H](F)CN(C)C3)n3cncc23)c(OC(F)(F)F)c1	8.00 to 9.00

Incoming: I'd like to know its pIC50. The compound in question is "COc1ccc(-c2nnc(N[C@H]3C[C@@](C)(O)C3)n3ccc(F)c23)c(OC(F)F)c1"
Outgoing: 7.00 to 8.00

Incoming: Query: pIC50; subject: "COc1ccc(-c2nnc(N[C@@H]3CCCC[C@H]3O)n3cncc23)c(OC(F)(F)F)c1"
Outgoing: 8.00 to 9.00

====

Measured IC50, listed per entry.
Target: NLRP3 (Homo sapiens)
Assay: IL-1β Secretion Assay (NLRP3-dependent IL1β secretion in THP1 cells)
Details: PMA-differentiated THP-1 cells; compounds incubated 20 h; 2.5 μM Nigericin 3 h; HTRF IL-1β readout; read-out: IC50 IL-1β Inhibition

molecule	value-observed
O[C@@H]1CCCC[C@@H]1Nc1nnc(-c2ccc(C(F)(F)F)cc2OC(F)F)c2cccn12 [Compound 79]	10 to 100 nM
COc1cc(C)c(-c2nnc(N[C@@H]3CCCN(C)C3)n3cccc23)c(F)c1 [Compound 118]	< 1 nM
Cc1ccc(-c2nnc(N[C@@H]3CCCN(C)C3)n3cncc23)c(CC(F)(F)F)c1 [Compound 317]	1 to 10 nM
O[C@@H]1CCCC[C@H]1Nc1nnc(-c2ccc(C(F)(F)F)cc2OC(F)(F)F)c2ccnn12 [Compound 398]	1 to 10 nM
FC(F)(F)c1ccc(-c2nnc(N[C@@H]3CCCN(C4CCCOC4)C3)n3cccc23)c(C(F)(F)F)c1 (stereo partly drawn) [Compound 6]	10 to 100 nM

Incoming: Recorded IC50 of C[C@]1(O)C[C@@H](Nc2nnc(-c3ccc(C4CC4)cc3OC(F)F)c3cncn23)C1 [Compound 345] , please.
Outgoing: 1 to 10 nM

Incoming: Query (molecule): FC(F)(F)c1ccc(-c2nnc(Nc3cc[nH]n3)n3cncc23)c(C(F)(F)F)c1 [Compound 285] ; field requested: IC50
Outgoing: 10 to 100 nM

Incoming: Which IC50 value is on record for Cc1cc2c(-c3ccc(Cl)cc3C(F)F)nnc(N[C@@H]3CCCN(C)C3)n2c1 [Compound 11] ?
Outgoing: 10 to 100 nM

Incoming: Entry under review: CCN1CCC[C@@H](Nc2nnc(-c3ccc(Br)cc3OC(F)(F)F)c3cc(C)nn23)C1 [Compound 357] . Reported IC50?
Outgoing: < 1 nM

Incoming: Requested read-out: IC50. Entry: Cc1cc2c(-c3ccc(C(F)(F)F)cc3CC(F)(F)F)nnc(N[C@H]3C[C@@](C)(O)C3)n2n1 [Compound 388]
Outgoing: 1 to 10 nM

Incoming: Consider the molecule COc1ccc(-c2nnc(NC[C@@H]3CCCO3)n3cccc23)c(OC(F)(F)F)c1 [Compound 76] and give its measured IC50.
Outgoing: 10 to 100 nM

====

# Lookup of reported IC50 keyed by entry
Molecular target: NLRP3 (Homo sapiens)
Construct: host or cells: THP-1 cells differentiated with PMA
Assay: IL-1β Secretion Assay (NLRP3-dependent IL1β secretion in THP1 cells)
Type: cell-based
Conditions: PMA-differentiated THP-1 cells; compounds incubated 20 h; 2.5 μM Nigericin 3 h; HTRF IL-1β readout; read-out: IC50 IL-1β Inhibition
Experimental: Monocytic THP-1 cells (ATCC: TIB-202) were maintained in growth media consisting of RPMI 1640 medium (ThermoFisher, Cat #11875-085), 10% FBS (ThermoFisher) and 0.05 mM β-mercaptoethanol (ThermoFisher, Cat #21985-023), according to the provider's instructions. […] Compounds, once produced and prepared according to the present invention, can be assessed in variety of assays to characterize their activities. For example, NLRP3-dependent IL1β secretion was evaluated in THP1 cells. […]

Take a look at these entries with their results.
compound	value-observed
COc1ccc(-c2nnc(N[C@@H]3CCCC[C@H]3O)n3nc(C)cc23)c(OC(F)(F)F)c1	0.01 to 0.1 µM
CC(C)CN1CCC[C@@H](Nc2nnc(-c3ccc(C(F)(F)F)cc3C(F)(F)F)c3cccn23)C1	0.001 to 0.01 µM

Incoming: // IC50 lookup, key: COc1ccc(-c2nnc(NC(C)c3cccc(O)c3)n3cncc23)c(C(F)(F)F)c1 (stereo not drawn)
Outgoing: < 0.001 µM

Incoming: Field request: IC50 | item: "COc1ccc(-c2nnc(N[C@@H]3CCCN(C)C3)n3ccc(F)c23)c(OC(F)F)c1"
Outgoing: 0.01 to 0.1 µM

Incoming: Look at this compound and give its reported IC50. "CN1CC[C@@H](O)[C@@H](Nc2nnc(-c3ccc(OC(F)F)cc3OC(F)(F)F)c3cccn23)C1"
Outgoing: < 0.001 µM

Incoming: Field request: IC50 | item: "CCN1CCC[C@@H](Nc2nnc(-c3ccc(OC)cc3OC3CC3)c3cccn23)C1"
Outgoing: 0.001 to 0.01 µM

====

Target: NLRP3 (Homo sapiens, UniProt Q96P20)
Sequence (Q96P20 whole entry): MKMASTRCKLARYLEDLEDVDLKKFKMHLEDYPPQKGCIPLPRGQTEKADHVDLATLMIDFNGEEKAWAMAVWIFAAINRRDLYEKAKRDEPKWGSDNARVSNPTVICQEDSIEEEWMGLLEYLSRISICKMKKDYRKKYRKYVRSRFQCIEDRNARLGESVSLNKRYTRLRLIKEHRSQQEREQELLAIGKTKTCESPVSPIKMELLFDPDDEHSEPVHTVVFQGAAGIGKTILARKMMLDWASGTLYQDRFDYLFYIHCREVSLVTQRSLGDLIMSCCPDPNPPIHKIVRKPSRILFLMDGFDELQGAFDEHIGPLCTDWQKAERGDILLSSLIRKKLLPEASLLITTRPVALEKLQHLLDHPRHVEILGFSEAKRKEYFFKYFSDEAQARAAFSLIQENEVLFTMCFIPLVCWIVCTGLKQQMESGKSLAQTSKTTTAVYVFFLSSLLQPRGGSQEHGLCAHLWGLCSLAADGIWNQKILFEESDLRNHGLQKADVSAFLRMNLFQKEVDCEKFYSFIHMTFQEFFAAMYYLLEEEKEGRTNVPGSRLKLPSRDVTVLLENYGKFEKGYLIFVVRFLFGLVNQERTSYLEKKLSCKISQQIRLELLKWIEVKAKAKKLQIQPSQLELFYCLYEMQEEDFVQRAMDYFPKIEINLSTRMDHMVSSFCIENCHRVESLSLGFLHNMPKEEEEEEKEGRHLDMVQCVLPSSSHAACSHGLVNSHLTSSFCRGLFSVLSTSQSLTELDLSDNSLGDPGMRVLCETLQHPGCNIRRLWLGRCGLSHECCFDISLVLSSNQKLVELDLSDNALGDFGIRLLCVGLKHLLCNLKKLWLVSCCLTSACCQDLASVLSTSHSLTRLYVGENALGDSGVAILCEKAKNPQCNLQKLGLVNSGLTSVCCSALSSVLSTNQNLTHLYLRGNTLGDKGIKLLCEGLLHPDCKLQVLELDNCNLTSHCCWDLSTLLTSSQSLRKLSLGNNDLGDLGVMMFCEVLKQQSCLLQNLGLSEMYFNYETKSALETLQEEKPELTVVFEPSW
Experiment: IL-1β Secretion Assay (NLRP3-dependent IL1β secretion in THP1 cells)
Details: PMA-differentiated THP-1 cells; compounds incubated 20 h; 2.5 μM Nigericin 3 h; HTRF IL-1β readout; read-out: IC50 IL-1β Inhibition
Recorded measurements of IC50, one per entry

Here are 5 molecules together with their reported answers.
molecule	IC50
COc1ccc(-c2nnc(N[C@H]3C[C@@](C)(O)C3)n3ccc(F)c23)c(C(F)(F)F)c1 [Compound 130]	1 to 10 nM
COc1ccc(-c2nnc(NC[C@@H](C)O)n3cccc23)c(OC(F)(F)F)c1 [Compound 70]	1 to 10 nM
O[C@@H]1COCC[C@H]1Nc1nnc(-c2ccc(C(F)(F)F)cc2CC(F)(F)F)c2cncn12 [Compound 313]	1 to 10 nM
O[C@@H]1CCCCC[C@H]1Nc1nnc(-c2ccc(C(F)(F)F)cc2CC(F)(F)F)c2cccn12.O[C@H]1CCCCC[C@@H]1Nc1nnc(-c2ccc(C(F)(F)F)cc2CC(F)(F)F)c2cccn12 [Compound 127]	10 to 100 nM
C[C@]1(O)C[C@@H](Nc2nnc(-c3ccc(C(F)(F)F)cc3OC(F)(F)F)c3ccnn23)C1 [Compound 397]	1 to 10 nM

Incoming: Entry under review: COc1ccc(-c2nnc(N[C@H]3C[C@@](C)(O)C3)n3cncc23)c(OC(F)F)c1 [Compound 226] . Reported IC50?
Outgoing: 10 to 100 nM

Incoming: Could you share which IC50 value was measured for COc1ccc(-c2nnc(N[C@@H]3CCOC[C@H]3O)n3cccc23)c(CC(F)(F)F)c1 [Compound 144] ?
Outgoing: 1 to 10 nM

Incoming: Requested field: IC50. Item: CC(Nc1nnc(-c2ccc(C(F)(F)F)cc2C(F)(F)F)c2ccnn12)c1cccc(O)c1 (stereo not shown) [Compound 395]
Outgoing: 1 to 10 nM

Incoming: Would you mind telling me what IC50 value was observed for CN1CCC[C@@H](Nc2nnc(-c3ccc(C(F)(F)F)cc3C(F)(F)F)c3c(F)ccn23)C1 [Compound 28] ?
Outgoing: 1 to 10 nM

Incoming: Which IC50 value belongs to COc1ccc(-c2nnc(NCCO)n3cccc23)c(OC(F)(F)F)c1 [Compound 64] ?
Outgoing: 10 to 100 nM

====

Each record here notes measured IC50.
Target: UniProt Q96P20
Experiment: IL-1β Secretion Assay (NLRP3-dependent IL1β secretion in THP1 cells)
Conditions: PMA-differentiated THP-1 cells; compounds incubated 20 h; 2.5 μM Nigericin 3 h; HTRF IL-1β readout; read-out: IC50 IL-1β Inhibition

Example entries and their recorded answers appear below.
compound	IC50
O[C@@H]1CCCC[C@H]1Nc1nnc(-c2ccc(Br)cc2OC(F)(F)F)c2cncn12	1 to 10 nM
COc1ccc(-c2nnc(NC3CCNC3=O)n3cncc23)c(C(F)(F)F)c1 (stereo not drawn)	1 to 10 nM
COc1ccc(-c2nnc(N[C@H]3C[C@@](C)(O)C3)n3ccc(F)c23)c(Cl)c1	10 to 100 nM
O[C@@H]1COCC[C@H]1Nc1nnc(-c2ccc(OC(F)F)cc2OC(F)(F)F)c2cncn12	10 to 100 nM
COc1ccc(-c2nnc(N[C@H](C)c3cccc(O)c3)n3cncc23)c(OC(F)(F)F)c1 (single isomer, unassigned)	≥ 300 nM
CCN1C[C@H](F)C[C@@H](Nc2nnc(-c3ccc(OC)cc3OC(F)(F)F)c3c(F)ccn23)C1	1 to 10 nM
COc1ccc(-c2nnc(N[C@@H]3CCC[C@H](O)C3)n3cccc23)c(OC(F)(F)F)c1	10 to 100 nM
Cc1ccc(-c2nnc(N[C@H]3C[C@@](C)(O)C3)n3nc(C)cc23)c(CC(F)(F)F)c1	1 to 10 nM
CC(Nc1nnc(-c2ccc(C(F)(F)F)cc2CC(F)(F)F)c2cccn12)c1cccc(O)c1 (stereo not drawn)	1 to 10 nM
CCN1CCC[C@@H](Nc2nnc(-c3ccc(OC)cc3OC(F)(F)F)c3c(F)ccn23)C1	< 1 nM

Incoming: GET /values?readout=IC50&item= "COc1ccc(-c2nnc(N[C@@H]3CCC[C@H](O)C3)n3cccc23)c(C2CC2)c1"
Outgoing: 10 to 100 nM

Incoming: # input compound: "O[C@H]1CCCC[C@@H]1Nc1nnc(-c2ccc(C(F)(F)F)cc2OC(F)(F)F)c2cccn12" ; wanted: its IC50
Outgoing: 10 to 100 nM

Each recorded value in this set is attributed to patent US20250179078A1.
